Attribution: PubChem BioAssay (NCI)

// values below are reported TGI
# Tested on: SN12C renal
# procedure_text: NCI tumour cell line growth inhibition, 48 h

These solved cases illustrate the format of a correct answer.
COC(=O)/C=C(/OC)[C@H](C)[C@H](/C=C/c1csc(-c2csc(C(C)C)n2)n1)OC; > 100 µM
CC(C)(C)c1ccc(/C=N/NC(=O)CSCC(=O)N/N=C/c2ccc(C(C)(C)C)cc2)cc1; 4.82 µM
O=C1CC(O)(c2ccccc2)C(c2ccccc2)=C1c1ccccc1 (centres undefined); > 100 µM

For "COc1cc(-c2nn(-c3cccc(NC(=O)c4ccc(N5CCOCC5)c(C(F)(F)F)c4)c3)cc2-c2ccncc2)ccc1Cl" , what is its reported TGI? > 75.8 µM

For "Br/C(=N\Nc1nn[nH]n1)c1ccncc1" , what is its reported TGI? > 100 µM

For "COc1ccc(C=C(c2ccc(OCc3ccccc3)cc2)c2ccc(OCc3ccccc3)cc2)cc1" , what is its reported TGI? > 100 µM

For "C=C(CN1CCN(c2cccc(C(F)(F)F)n2)CC1)c1ccc(C(=S)Nc2ccccc2N)cc1" , what is its reported TGI? > 100 µM

For "c1ccc2c(c1)[nH]c1c2nc2ncccn21" , what is its reported TGI? > 100 µM

For "C/C(=C(\c1ccc(OCCN2CCCCCC2)cc1)c1ccc(OC(=O)Cc2ccccc2)cc1)c1ccc(Cl)cc1" , what is its reported TGI? 5.07 µM

====

# Tested on: HL-60(TB) leukemia
# procedure_text: NCI tumour cell line growth inhibition, 48 h; in the data active = GI50 below about 0.43 µM; inactive = the rest
Response enum: active, inactive

Answered examples (8):
O=S(=O)(Nc1cc(Cl)ccc1Cl)c1ccc(-c2cnc(C3CC3)o2)cc1; inactive
CNC(=O)Oc1cc(C)c(/C=C/c2cncc(C(=O)NC)c2)c(C)c1; inactive
CCS(=O)(=O)Nc1cccc(Nc2c3cccc(C)c3nc3c(C)cccc23)c1OC; active
C/C(=C(\c1ccc(OCCN2CCCCCC2)cc1)c1ccc(OC(=O)Cc2ccccc2)cc1)c1ccc(Cl)cc1; inactive
C[n+]1ccc(-c2c3nc(c(-c4cc[n+](C)cc4)c4ccc([n-]4)c(-c4cc[n+](C)cc4)c4nc(c(-c5cc[n+](C)cc5)c5ccc2[n-]5)C=C4)C=C3)cc1.[I-].[Zn+2]; inactive
CC1=C([Te]c2ccc(O)cc2)C(=O)c2ccccc2C1=O; inactive
C[C@H]1[C@H]2[C@H]3CC[C@@H]4[C@@]5(C)C/C(=C/c6cccnc6)C(=O)C(C)(C)[C@@H]5CC[C@@]4(C)[C@]3(C)CC[C@]23CO[C@]1(C)[C@@H](C(=O)/C=C\c1cccnc1)C3; inactive
COc1cc(-c2nn(-c3cccc(NC(=O)c4ccc(N5CCOCC5)c(C(F)(F)F)c4)c3)cc2-c2ccncc2)ccc1Cl; active

Write down the call the test reported for this compound. Item: "O=C(NO)c1ccc(Cn2c(=O)n(-c3ccccc3F)c(=O)c3ccccc32)cc1" inactive

Write down the call the test reported for this compound. Item: "CN(C)CCCNC(=O)c1cncnc1Nc1ccc(OCc2cccc(F)c2)c(Cl)c1" inactive

Write down the call the test reported for this compound. Item: CCc1ccc2c(c1)N(CCO)C1=C(C(=O)OC1)C2c1cccc(Cl)c1 (stereo unspecified) inactive

====

# Test system: SK-OV-3 ovarian
# procedure_text: NCI tumour cell line growth inhibition, 48 h
measured_quantity: TGI

These solved cases illustrate the format of a correct answer.
COc1ccc(OC(C(=O)O)c2ccccc2)c2c1CCCC2=O (stereo not given); > 100 µM
CCOC(=O)C1=CC(C)(C(=O)OCC)Nc2c(nc(OC)[nH]c2=O)N1 (stereo not given); > 10 µM
CC(=O)N1CC(=O)N2C(=O)/C(=C/c3ccc(Cl)cc3)N=C12; > 100 µM
CC(C)N1CN(C(C(=O)N[C@@H]2C(=O)N3C2SC(C)(C)C3C(=O)O)c2ccc(O)cc2)CSC1=S (stereo not given in full); > 100 µM
CCOc1ccccc1NC(=O)CCc1n[nH]c(=S)o1; > 100 µM
Clc1cc(Br)c2c3c(c(Br)cc(Cl)c13)C(Br)=C2Br; > 100 µM
COc1ccc(-n2c(N)c(C#N)c(C#N)c2-c2ccccc2)cc1; > 100 µM
CCOP(=O)(OCC)[C@H]1OC(C)(C)O[C@@H]1CO; > 100 µM

For "O=[N+]([O-])c1c(C=Nc2ccccc2)oc(-c2ccc3c(c2)OCO3)c1-c1ccc2c(c1)OCO2" , what is its reported TGI? > 100 µM

For "O=C(/C(=C/c1ccc([N+](=O)[O-])cc1)SCc1ccc(F)cc1)c1ccc(Cl)cc1" , what is its reported TGI? > 100 µM

For "Brc1cc2c(cc1C1SCCS1)OCO2" , what is its reported TGI? > 100 µM

For "COc1cc(S(=O)(=O)Nc2nc(-c3ccc(N4C(=O)/C(=C/c5ccccc5[N+](=O)[O-])N=C4c4ccccc4)cc3)cs2)ccc1Cl" , what is its reported TGI? > 100 µM

For "C[C@]12CC[C@H](O)CC1=CC[C@@H]1[C@@H]2CC[C@]2(C)C(=N/O)/C(=C/c3ccc([N+](=O)[O-])cc3)C[C@@H]12" , what is its reported TGI? 22.5 µM

For "CC[C@]12C=CCN3CC[C@@]4(c5cc(Br)c(OC)cc5N(C)[C@H]4[C@@](O)(C(=O)N[C@@H](Cc4ccc(O)cc4)C(=O)OC)[C@@H]1O)[C@@H]32" , what is its reported TGI? > 100 µM

====

// values below are reported TGI
# Test system: K-562 leukemia
# procedure_text: NCI tumour cell line growth inhibition, 48 h

C=CCNS(=O)(=O)c1ncnc2nc[nH]c12; > 100 µM
CCN(CC)CCCC(C)N=c1cc(Nc2cc(=NC(C)CCCN(CC)CC)c3cc(OC)ccc3o2)oc2ccc(OC)cc12 (stereo not drawn); 4.76 µM
CC(=O)OCCOc1cc2c([nH]c3ccccc32)c(C)c2cccc1-2; > 100 µM
COC(=O)[C@H](Cc1ccc(O)cc1)NC(=O)[C@@H](OC)[C@@H]1Cc2cc3cc(OC4CC(OC5CC(O)C(O)C(C)O5)C(O)C(C)O4)c(C)c(O)c3c(O)c2C(=O)[C@H]1OC1CC(OC2CC(OC3CC(C)(O)C(O)C(C)O3)C(O)C(C)O2)C(O)C(C)O1 (stereo partly drawn); > 25 µM
C[C@]12CC[C@H](O)CC1=CC[C@@H]1[C@@H]2CC[C@]2(C)C(=N/O)/C(=C/c3ccc([N+](=O)[O-])cc3)C[C@@H]12; 59.9 µM

For "COC(=O)Nc1nc2ccc(NC(=O)c3cccs3)cc2[nH]1" , what is its reported TGI? > 100 µM

For "CNc1nnc(CNc2ccc(-c3nnc(NC)n3N)cc2)n1N" , what is its reported TGI? > 100 µM

For "COc1ccc(-c2nc(N3CCN(C(=O)C4CCCCC4)CC3)c3c4c(sc3n2)CCCC4)cc1" , what is its reported TGI? > 100 µM

====

# Tested on: HCT-15 colon
# procedure_text: NCI tumour cell line growth inhibition, 48 h
// values below are reported TGI
Only the number, expressed in µM, is required.

COC(=O)/C=C(\S/C(=N\n1cc(C(=O)OC)c(C(=O)OC)c1-c1ccc(C)cc1)c1ccc(C)cc1)C(=O)OC; 7.34

Here is the next item to consider.
For "CC(=O)[C@@]1(O)[C@H](C)C[C@H]2[C@@H]3C=C(C)C4=Cc5c(cnn5-c5ccccc5)C[C@]4(C)[C@H]3[C@@H](O)C[C@@]21C" , what is its reported TGI? 2.66

====

// values below are reported TGI
# System: OVCAR-3 ovarian
# procedure_text: NCI tumour cell line growth inhibition, 48 h

CC(C)(C)OC(=O)C1CC[C@@H](CC(=O)Oc2ccc([N+](=O)[O-])cc2)N1 (stereo partly drawn); > 100 µM
COC(=O)[C@H](Cc1ccc(O)cc1)NC(=O)[C@@H](OC)[C@@H]1Cc2cc3cc(OC4CC(OC5CC(O)C(O)C(C)O5)C(O)C(C)O4)c(C)c(O)c3c(O)c2C(=O)[C@H]1OC1CC(OC2CC(OC3CC(C)(O)C(O)C(C)O3)C(O)C(C)O2)C(O)C(C)O1 (stereo partly drawn); > 25 µM
COc1ccc2[nH]cc(CCNC(=O)[C@](O)(Cc3cn(C)c4ccccc34)[C@@]3(O)OCC(O)C3O)c2c1 (stereo partly drawn); > 100 µM

Param readout = TGI; param system = OVCAR-3 ovarian; param query = "CCOC(=O)c1ccc(NC(=O)SCCC(=O)O)cc1" ; response: value > 100 µM

Param readout = TGI; param system = OVCAR-3 ovarian; param query = O=C1CC(O)(c2ccccc2)C(c2ccccc2)=C1c1ccccc1 (stereo not drawn) ; response: value 88.2 µM

====

# Test system: MDA-MB-231 breast
# procedure_text: NCI tumour cell line growth inhibition, 48 h
measured_quantity: TGI

These solved cases illustrate the format of a correct answer.
O=c1c2cc([N+](=O)[O-])ccc2nc2n1CCCCC2; > 100 µM
SC1CCCN(Cc2ccccc2)C1 (stereo not given); > 100 µM
CCS(=O)(=O)Nc1cccc(Nc2c3cccc(C)c3nc3c(C)cccc23)c1OC; 41.4 µM

For "CC(=O)O[C@H]1C(=O)[C@@]2(C)[C@H]([C@H](OC(=O)c3ccccc3)[C@]3(O)C[C@H](OC(=O)[C@H](O)[C@@H](NC(=O)C(C)(C)C)c4ccccc4)C(C)=C1C3(C)C)[C@]1(OC(C)=O)CO[C@@H]1C[C@@H]2O" , what is its reported TGI? > 10 µM

For "C=C(CN1CCN(c2cccc(C(F)(F)F)n2)CC1)c1ccc(C(=S)Nc2ccccc2N)cc1" , what is its reported TGI? 8.9 µM

For CCc1ccc2c(c1)N(CCO)C1=C(C(=O)OC1)C2c1cccc(Cl)c1 (stereo not given) , what is its reported TGI? 15.3 µM

For "Clc1ccc(-c2ccc(-c3nn4c(CNc5ccccc5)nnc4s3)o2)c(Cl)c1" , what is its reported TGI? > 100 µM

For "Cc1ccc2c(=O)cc(-c3ccsc3)[nH]c2n1" , what is its reported TGI? > 87.6 µM

For "COC(=O)Nc1nc2ccc(NC(=O)c3cccs3)cc2[nH]1" , what is its reported TGI? > 100 µM

For CC(=O)NNC(=O)C1CCCCN1 (stereo not given) , what is its reported TGI? > 100 µM
